Test system: A2780 ovarian cancer tumor model
Test description: Efficacy in animal model of A2780 ovarian cancer, 30 mg/kg once a week for two weeks (Example 41)
Format: in vivo, BALB/c mice
Measurement context: Day 10
Where a SMILES comes first, the peptide text is derived from it. The star is where a group is joined. X6 = CCCCCN(CCc1c2c(nc3ccccc13)-c1cc3c(c(=O)n1C2)COC(=O)[C@]3(O)CC)*; X2 = CCCCN(CCc1c2c(nc3ccccc13)-c1cc3c(c(=O)n1C2)COC(=O)[C@]3(O)CC)*; X4 = CCCN(CCc1c2c(nc3ccccc13)-c1cc3c(c(=O)n1C2)COC(=O)[C@]3(O)CC)*; X5 = CC[C@@]1(O)C(=O)OCc2c1cc1n(c2=O)Cc2c-1nc1ccccc1c2CCN(CC(C)C)*; Propanoyl(3-maleimido) = O=C1C=CC(=O)N1CCC(=O)*; PEG6 = NCCOCCOCCOCCOCCOCCOCCC(=O)O
Quantity measured: A2780 (ovarian cancer) mean tumor volume (mm^3) Day 10
Give just the number in mm^3; leave the unit off.

Compound | Assay system | Result
CCCN(CCc1c2c(nc3ccccc13)-c1cc3c(c(=O)n1C2)COC(=O)[C@]3(O)CC)C(=O)[C@H](CC(C)C)NC(=O)[C@H](CC(N)=O)NC(=O)[C@H](C)NC(=O)[C@H](C)NC(=O)CCOCCOCCOCCOCCOCCOCCNC(=O)CCN1C(=O)C=CC1=O [MI-6PEG-AANL-D3] ({Propanoyl(3-maleimido)-PEG6}-AANL-X4) | A2780 ovarian cancer tumor model | 998.38

[Q] Fill in the recorded A2780 (ovarian cancer) mean tumor volume (mm^3) Day 10 for this compound, with A2780 ovarian cancer tumor model as test system: CC[C@@]1(O)C(=O)OCc2c1cc1n(c2=O)Cc2c-1nc1ccccc1c2CCN(CC(C)C)C(=O)[C@H](CC(C)C)NC(=O)[C@H](CC(N)=O)NC(=O)[C@H](C)NC(=O)[C@H](C)NC(=O)CCOCCOCCOCCOCCOCCOCCNC(=O)CCN1C(=O)C=CC1=O [MI-6PEG-AANL-D5] ({Propanoyl(3-maleimido)-PEG6}-AANL-X5)
[A] 730.28

[Q] Request: CCCCCN(CCc1c2c(nc3ccccc13)-c1cc3c(c(=O)n1C2)COC(=O)[C@]3(O)CC)C(=O)CNC(=O)[C@H](CC(N)=O)NC(=O)[C@H](C)NC(=O)[C@H](C)NC(=O)CCOCCOCCOCCOCCOCCOCCNC(=O)CCN1C(=O)C=CC1=O [MI-6PEG-AANG-D4] ({Propanoyl(3-maleimido)-PEG6}-AANG-X6)
[A] 791.18

[Q] Request: CCCCN(CCc1c2c(nc3ccccc13)-c1cc3c(c(=O)n1C2)COC(=O)[C@]3(O)CC)C(=O)[C@H](CC(C)C)NC(=O)[C@H](CC(N)=O)NC(=O)[C@H](C)NC(=O)[C@H](C)NC(=O)CCOCCOCCOCCOCCOCCOCCNC(=O)CCN1C(=O)C=CC1=O [MI-6PEG-AANL-D4] ({Propanoyl(3-maleimido)-PEG6}-AANL-X2)
[A] 894.45

* * *

Test description: Tumor homogenate activation efficiency, sarcoma tissue (Examples 28, 37)
Format: in vitro ADME
Measurement context: pH 5.0, 37° C., 2 h; Table 10
Where a SMILES comes first, the peptide text is derived from it. The star is where a group is joined. X5 = CC[C@@]1(O)C(=O)OCc2c1cc1n(c2=O)Cc2c-1nc1ccccc1c2CCN(CC(C)C)*; X3 = CC[C@@]1(O)C(=O)OCc2c1cc1n(c2=O)Cc2c-1nc1ccccc1c2CCN(C1CC1)*; Propanoyl(3-maleimido) = O=C1C=CC(=O)N1CCC(=O)*; PEG6 = NCCOCCOCCOCCOCCOCCOCCC(=O)O
Entries and their Percentage of release efficiency (%) Sarcoma tissue (SJSA1) values follow.
Give just the number in %; leave the unit off.

Compound | Result
CC[C@@]1(O)C(=O)OCc2c1cc1n(c2=O)Cc2c-1nc1ccccc1c2CCN(C(=O)[C@H](CC(C)C)NC(=O)[C@H](CC(N)=O)NC(=O)[C@H](C)NC(=O)[C@H](C)NC(=O)CCOCCOCCOCCOCCOCCOCCNC(=O)CCN1C(=O)C=CC1=O)C1CC1 [MI-6PEG-AANL-D6] ({Propanoyl(3-maleimido)-PEG6}-AANL-X3) | 69.5

Could you now look at the following compound, please?
[Q] Name the reported Percentage of release efficiency (%) Sarcoma tissue (SJSA1) value associated with the compound CC[C@@]1(O)C(=O)OCc2c1cc1n(c2=O)Cc2c-1nc1ccccc1c2CCN(CC(C)C)C(=O)[C@H](CC(C)C)NC(=O)[C@H](CC(N)=O)NC(=O)[C@H](C)NC(=O)[C@H](C)NC(=O)CCOCCOCCOCCOCCOCCOCCNC(=O)CCN1C(=O)C=CC1=O [MI-6PEG-AANL-D5] ({Propanoyl(3-maleimido)-PEG6}-AANL-X5)
[A] 77.5

* * *

Tested on: sarcoma SJSA-1 tumor model
Test description: Efficacy in animal model of sarcoma SJSA-1, 30 mg/kg once a week for two weeks (Example 40)
Assay type: in vivo, BALB/c mice
Measurement context: 30 mg/kg once a week for two weeks; Day 7
Where a SMILES comes first, the peptide text is derived from it. The star is where a group is joined. NEt(2-(20S-CPT-7-yl)ethyl) = CCN(CCc1c2c(nc3ccccc13)-c1cc3c(c(=O)n1C2)COC(=O)[C@]3(O)CC)*; X2 = CCCCN(CCc1c2c(nc3ccccc13)-c1cc3c(c(=O)n1C2)COC(=O)[C@]3(O)CC)*; X4 = CCCN(CCc1c2c(nc3ccccc13)-c1cc3c(c(=O)n1C2)COC(=O)[C@]3(O)CC)*; Propanoyl(3-maleimido) = O=C1C=CC(=O)N1CCC(=O)*; PEG6 = NCCOCCOCCOCCOCCOCCOCCC(=O)O
Quantity measured: SJSA-1 (sarcoma tissue) mean tumor volume (mm^3) Day 7
Give just the number in mm^3; leave the unit off.

Consider the following illustrative entries.
Molecule | Assay system | Result
CCCCN(CCc1c2c(nc3ccccc13)-c1cc3c(c(=O)n1C2)COC(=O)[C@]3(O)CC)C(=O)[C@H](CC(C)C)NC(=O)[C@H](CC(N)=O)NC(=O)[C@H](C)NC(=O)[C@H](C)NC(=O)CCOCCOCCOCCOCCOCCOCCNC(=O)CCN1C(=O)C=CC1=O [MI-6PEG-AANL-D4] ({Propanoyl(3-maleimido)-PEG6}-AANL-X2) | sarcoma SJSA-1 tumor model | 739.25
CCCN(CCc1c2c(nc3ccccc13)-c1cc3c(c(=O)n1C2)COC(=O)[C@]3(O)CC)C(=O)[C@H](CC(C)C)NC(=O)[C@H](CC(N)=O)NC(=O)[C@H](C)NC(=O)[C@H](C)NC(=O)CCOCCOCCOCCOCCOCCOCCNC(=O)CCN1C(=O)C=CC1=O [MI-6PEG-AANL-D3] ({Propanoyl(3-maleimido)-PEG6}-AANL-X4) | sarcoma SJSA-1 tumor model | 735.18

[Q] Fill in the recorded SJSA-1 (sarcoma tissue) mean tumor volume (mm^3) Day 7 for this molecule, with sarcoma SJSA-1 tumor model as test system: CCN(CCc1c2c(nc3ccccc13)-c1cc3c(c(=O)n1C2)COC(=O)[C@]3(O)CC)C(=O)[C@H](CC(C)C)NC(=O)[C@H](CC(N)=O)NC(=O)[C@H](C)NC(=O)[C@H](C)NC(=O)CCOCCOCCOCCOCCOCCOCCNC(=O)CCN1C(=O)C=CC1=O [MI-6PEG-AANL-D2] ({Propanoyl(3-maleimido)-PEG6}-AANL-{NEt(2-(20S-CPT-7-yl)ethyl)})
[A] 891.36

* * *

Test description: MTD determination in mice (Examples 27, 36, 44)
Format: in vivo
Measurement context: mice, monitored for 14 d; Table 4
Quantity measured: MTD (mg/kg)
Give just the number in mg/kg; leave the unit off.

Consider the following illustrative entries.
Compound | MTD, mg/kg
CC[C@@]1(O)C(=O)OCc2c1cc1n(c2=O)Cc2c-1nc1ccccc1c2CCNC [D1] | 25
CC[C@@]1(O)C(=O)OCc2c1cc1n(c2=O)Cc2c-1nc1ccccc1c2CCNC1CCCC1 | 25
CC[C@@]1(O)C(=O)OCc2c1cc1n(c2=O)Cc2c-1nc1ccccc1c2CCNC1CCC1 | 15

Could you now look at the following compound, please?
[Q] Name the reported MTD value associated with the compound CCCCNCCc1c2c(nc3ccccc13)-c1cc3c(c(=O)n1C2)COC(=O)[C@]3(O)CC
[A] 30

* * *

Test system: colo320 colorectal cancer tumor model
Measurement context: 45 mg/kg once a week for four weeks; Table 3
Where a SMILES comes first, the peptide text is derived from it. The star is where a group is joined. Belotecan = CC[C@@]1(O)C(=O)OCc2c1cc1n(c2=O)Cc2c-1nc1ccccc1c2CCN(C(C)C)*; X6 = CCCCCN(CCc1c2c(nc3ccccc13)-c1cc3c(c(=O)n1C2)COC(=O)[C@]3(O)CC)*; X1 = CC[C@@]1(O)C(=O)OCc2c1cc1n(c2=O)Cc2c-1nc1ccccc1c2CCN(C1CCC1)*; Propanoyl(3-maleimido) = O=C1C=CC(=O)N1CCC(=O)*; PEG6 = NCCOCCOCCOCCOCCOCCOCCC(=O)O
Quantity measured: Mouse weight (%)

Compound | Result
CCCCCN(CCc1c2c(nc3ccccc13)-c1cc3c(c(=O)n1C2)COC(=O)[C@]3(O)CC)C(=O)CNC(=O)[C@H](CC(N)=O)NC(=O)[C@H](C)NC(=O)[C@H](C)NC(=O)CCOCCOCCOCCOCCOCCOCCNC(=O)CCN1C(=O)C=CC1=O [MI-6PEG-AANG-D4] ({Propanoyl(3-maleimido)-PEG6}-AANG-X6) | +18%
CC[C@@]1(O)C(=O)OCc2c1cc1n(c2=O)Cc2c-1nc1ccccc1c2CCN(C(=O)CNC(=O)[C@H](CC(N)=O)NC(=O)[C@H](C)NC(=O)[C@H](C)NC(=O)CCOCCOCCOCCOCCOCCOCCNC(=O)CCN1C(=O)C=CC1=O)C1CCC1 [MI-6PEG-AANG-D7] ({Propanoyl(3-maleimido)-PEG6}-AANG-X1) | +31%

[Q] Name the reported Mouse weight (%) value associated with the compound CC[C@@]1(O)C(=O)OCc2c1cc1n(c2=O)Cc2c-1nc1ccccc1c2CCN(C(=O)CNC(=O)[C@H](Cc1ccccc1)NC(=O)CNC(=O)CNC(=O)CCOCCOCCOCCOCCOCCOCCNC(=O)CCN1C(=O)C=CC1=O)C(C)C [MI-6PEG-GGFG-Belotecan] ({Propanoyl(3-maleimido)-PEG6}-GGFG-Belotecan)
[A] +34%
